# TEST METHOD NOTES: NCI Yeast Anticancer Drug Screen. Data for the rad50 strain (AID 155)
# EXPERIMENTAL CONTEXT: S. cerevisiae rad50 strain growth inhibition; at 5.0 µM (retest, dose inferred, filed as 0.5)
This is part of a sample that, as a whole, favours compounds with a hit. Of some 79,000 tested, about 15% had one in any assay. Calls of active or inactive are those of the source. No stated cut-off is given here; in the data, active means growth inhibition above about 70%; inactive means the rest.
Write down the outcome that applies. Available outcomes: active, inactive

stdin: Record lookup: outcome of this test for CC1(CO)C(O)CCC2(C)C1CCC1CC3CC12CCC3(O)CO (centres undefined) ?
stdout: inactive

stdin: Please share the test call associated with N#CC1CC[CH-]CC1.[Cl-].[Cl-].[Cl-].[Cl-].[Cl-].[Sb+5].c1ccncc1 .
stdout: inactive

stdin: Would you mind telling me which call this test gave C[CH2][Sn]([O][Sn]([Cl])([CH2]C)[c]1ccccc1)[c]1ccccc1 (centres undefined) ?
stdout: inactive

stdin: Hi team, can someone confirm the assay call for CC(=O)[CH-]C(C)=O.CC(=O)[CH-]C(C)=O.N=CC=N.[Sn+2] ?
stdout: active

stdin: # lookup: test call for CNP1(=O)OC(c2ccccc2)=CCN1CCCl (centres undefined)
stdout: inactive

stdin: State the result this test recorded for c1ccc([As+](c2ccccc2)(c2ccccc2)c2cccc3ccccc23)cc1 .
stdout: active

stdin: Returns: the outcome recorded for O=[N+]([O-])C=C([SH2+])[SH2+].O=[N+]([O-])C=C([SH2+])[SH2+].[Ni+2].c1ccc(C[P+](c2ccccc2)(c2ccccc2)c2ccccc2)cc1 in this assay.
stdout: inactive

stdin: What classification did ClCCN1CCOCC1 end up with in this test?
stdout: active

stdin: How did this test come out for CC1=C(O)C(=O)C=C2C1=CC=C1[C@@]2(C)CC[C@@]2(C)[C@@H]3C[C@](C)(C(=O)O)CC[C@]3(C)CC[C@]12C ?
stdout: inactive
